Tested on: SNB-75 CNS
Experimental Protocol: NCI-60 one-dose screen, 48 h (100 = growth as untreated, 0 = no growth, -100 = all killed)
Details: 10 µM unless noted
Compounds without any hit were thinned out: in the full panel of roughly 83,000, 20% have a hit.
Each entry belongs to exactly one class, chosen by where its growth falls: label 0 = under 20%, label 1 = from 20% up to 90%, label 2 = 90% and over

// below: answered compounds
INSERT INTO measurements (compound, system_under_test, classification) VALUES
  ('O=C(Nc1ccccc1)Nc1ncnc2c1ncn2-c1ccc(Cl)cc1', 'SNB-75 CNS', 'label 1'),
  ('COc1ccc2c(c1)N(CCO)C1=C(C(=O)OC1)C2c1cccc(F)c1 (stereo not given)', 'SNB-75 CNS', 'label 1');

Categorize the following entry: CCC(C(=O)[C@@H](C)[C@@H](O)[C@H](C)[C@@H]1O[C@@H]([C@@H](CC)C(=O)ONC(=O)c2ccccc2)CC[C@@H]1C)[C@H]1O[C@]2(C=CC(=O)[C@]3(CC[C@@](C)([C@H]4CC[C@](O)(CC)[C@H](C)O4)O3)O2)[C@H](C)C[C@@H]1C (stereo not given in full) label 1
